# System name: T1, SND1 650-910 TUDOR+SNase (domain begin residue: 650, domain end residue: 910), Q7KZF4
# T1 chain: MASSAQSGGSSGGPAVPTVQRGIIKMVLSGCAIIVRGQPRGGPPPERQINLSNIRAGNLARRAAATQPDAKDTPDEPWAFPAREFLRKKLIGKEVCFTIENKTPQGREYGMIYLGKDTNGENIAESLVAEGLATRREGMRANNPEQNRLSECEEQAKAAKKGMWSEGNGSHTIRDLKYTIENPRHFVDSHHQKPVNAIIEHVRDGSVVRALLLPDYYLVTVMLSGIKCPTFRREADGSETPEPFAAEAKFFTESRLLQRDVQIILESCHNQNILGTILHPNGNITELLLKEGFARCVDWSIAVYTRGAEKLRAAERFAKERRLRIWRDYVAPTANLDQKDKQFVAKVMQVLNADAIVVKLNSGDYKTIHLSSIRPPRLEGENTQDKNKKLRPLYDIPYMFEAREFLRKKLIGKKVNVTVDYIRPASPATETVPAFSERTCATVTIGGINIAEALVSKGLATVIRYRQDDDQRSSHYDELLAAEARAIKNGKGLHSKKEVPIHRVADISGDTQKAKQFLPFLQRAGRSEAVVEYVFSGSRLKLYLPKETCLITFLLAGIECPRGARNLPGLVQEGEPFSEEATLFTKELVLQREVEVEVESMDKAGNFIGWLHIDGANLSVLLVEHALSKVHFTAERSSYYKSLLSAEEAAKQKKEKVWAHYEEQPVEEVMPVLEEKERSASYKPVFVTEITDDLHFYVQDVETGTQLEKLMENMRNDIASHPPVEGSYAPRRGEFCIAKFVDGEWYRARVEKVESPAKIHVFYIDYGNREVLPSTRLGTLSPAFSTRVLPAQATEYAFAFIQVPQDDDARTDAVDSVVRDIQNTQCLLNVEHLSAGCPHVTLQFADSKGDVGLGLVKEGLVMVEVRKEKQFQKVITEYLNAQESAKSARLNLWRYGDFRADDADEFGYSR
# Test: phage ELISA signal ratio (GST-PRM binding over GST background); higher = stronger binding of peptide-phage to the PRM
Property label: phage ELISA signal ratio
API doc: respond with a numeric literal and nothing else, no unit.

Input line: Input GDYMSMLFMQEWGPFN , output reported phage ELISA signal ratio.
Output line: 5.51

Input line: Input WGWDEMLNDPEIMRIV , output reported phage ELISA signal ratio.
Output line: 8.1

Input line: Input EELWDQWHSWVTEPDE , output reported phage ELISA signal ratio.
Output line: 4.69

Input line: Input MNFMDIWDHMAIPPEQ , output reported phage ELISA signal ratio.
Output line: 7.06
